- Target Of Assay: T1, human prolactin receptor (PRLR) (human, UniProt P16471 25-622)
- T1 sequence: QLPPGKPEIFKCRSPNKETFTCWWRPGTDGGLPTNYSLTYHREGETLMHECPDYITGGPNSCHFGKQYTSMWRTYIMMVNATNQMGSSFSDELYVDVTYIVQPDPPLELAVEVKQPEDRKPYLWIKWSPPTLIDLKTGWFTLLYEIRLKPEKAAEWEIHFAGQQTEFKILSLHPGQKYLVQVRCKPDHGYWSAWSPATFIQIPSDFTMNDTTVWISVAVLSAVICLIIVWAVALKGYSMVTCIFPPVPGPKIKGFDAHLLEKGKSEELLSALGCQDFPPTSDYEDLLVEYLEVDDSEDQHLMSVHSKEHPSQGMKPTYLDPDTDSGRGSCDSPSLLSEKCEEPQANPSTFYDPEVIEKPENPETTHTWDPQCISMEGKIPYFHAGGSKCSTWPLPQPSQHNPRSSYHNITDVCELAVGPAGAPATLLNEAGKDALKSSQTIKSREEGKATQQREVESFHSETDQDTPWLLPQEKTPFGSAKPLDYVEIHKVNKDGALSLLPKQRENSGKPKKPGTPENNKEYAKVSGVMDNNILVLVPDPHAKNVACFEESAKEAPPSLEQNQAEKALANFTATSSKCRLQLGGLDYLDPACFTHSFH
- Assay Method Text: cell-based or functional assay
Experimental Readout: % Kill, MCF7/PRLR cells (%)

{"columns": ["Binder", "Experimental Readout", "Test Result"],
 "data": [
  ["H1H6953N-mc-VC-PAB-MMAE (antibody, human IgG1, V domains shown, MMAE conjugated through cleavable mc-vc-PAB linker; attachment residues not stated) VH: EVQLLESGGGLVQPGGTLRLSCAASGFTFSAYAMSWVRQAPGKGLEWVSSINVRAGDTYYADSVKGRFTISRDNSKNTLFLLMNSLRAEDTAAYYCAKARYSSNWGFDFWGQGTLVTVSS VL: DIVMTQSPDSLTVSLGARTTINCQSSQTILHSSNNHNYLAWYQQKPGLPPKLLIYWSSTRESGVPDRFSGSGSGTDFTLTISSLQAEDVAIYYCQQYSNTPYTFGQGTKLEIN", "% Kill, MCF7/PRLR cells", 85],
  ["H1H6958N2-DM1 (antibody, human IgG1, V domains shown, DM1 conjugated through SMCC linker; attachment residues not stated) VH: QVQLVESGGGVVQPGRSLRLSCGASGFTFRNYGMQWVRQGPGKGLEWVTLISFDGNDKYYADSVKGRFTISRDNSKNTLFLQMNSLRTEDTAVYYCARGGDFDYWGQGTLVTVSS VL: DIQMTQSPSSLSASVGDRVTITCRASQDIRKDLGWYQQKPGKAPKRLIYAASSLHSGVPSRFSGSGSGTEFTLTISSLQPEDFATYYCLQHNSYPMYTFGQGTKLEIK", "% Kill, MCF7/PRLR cells", 83],
  ["H1H6765P-mc-VC-PAB-MMAE (antibody, human IgG1, V domains shown, MMAE conjugated through cleavable mc-vc-PAB linker; attachment residues not stated) VH: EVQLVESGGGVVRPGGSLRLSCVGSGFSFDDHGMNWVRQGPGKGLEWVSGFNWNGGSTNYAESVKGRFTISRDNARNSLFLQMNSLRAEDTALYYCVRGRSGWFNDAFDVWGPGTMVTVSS VL: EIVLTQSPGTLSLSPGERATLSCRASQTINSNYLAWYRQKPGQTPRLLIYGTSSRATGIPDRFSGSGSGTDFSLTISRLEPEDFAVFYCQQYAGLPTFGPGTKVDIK", "% Kill, MCF7/PRLR cells", 86]
]}
